test-summary: PK analysis in neutropenic mice (plasma, LC-MS/MS, compartmental model)
assay-setup: male, ICR, mouse, plasma, sc
experimental-readout: half-life (min)
A number alone suffices; assume min.

State its half-life: NCCONC(=O)[C@@H]1CC[C@@H]2CN1C(=O)N2OS(=O)(=O)O [Nacubactam]
10.8

---

test-summary: PK analysis in neutropenic mice (plasma, LC-MS/MS, compartmental model)
assay-setup: male, ICR, mouse, plasma, sc
experimental-readout: Vd/F (L/kg)
Give the quantity in L/kg, number only.

Answer with the recorded Vd/F of NCCONC(=O)[C@@H]1CC[C@@H]2CN1C(=O)N2OS(=O)(=O)O only.
0.29

---

test-summary: Protein binding rate in mouse plasma by ultrafiltration
Type: in vitro ADME
assay-setup: Protein binding rate, mean (n=3)
experimental-readout: fraction unbound at 30 min, 1 mg/L
Just the number, please.

Fill in reported fraction unbound at 30 min, 1 mg/L for this entry: C[C@H]1[C@H](NC(=O)/C(=N\OC(C)(C)C(=O)O)c2csc(N)n2)C(=O)N1S(=O)(=O)O [Aztreonam, reference compound]
0.395

---

test-summary: Protein binding rate in mouse plasma by ultrafiltration
Assay type: in vitro ADME
assay-setup: Protein binding rate, mean (n=3)
experimental-readout: fraction unbound at 30 min, 400 mg/L
Number only, please.

Tell me fraction unbound at 30 min, 400 mg/L reported for C[C@H]1[C@H](NC(=O)/C(=N\OC(C)(C)C(=O)O)c2csc(N)n2)C(=O)N1S(=O)(=O)O [Aztreonam, reference compound]
0.542

---

test-summary: in vivo
assay-setup: male, ICR, mouse, in vivo, sc
Protocol: Male ICR mice (Sankyo Labo Service Corporation, Inc., Shizuoka, Japan) were used for all animal experiments. […] The concentration of antibiotics in each plasma sample was measured using a validated LC-MS/MS method. […] The concentrations of the antibiotics in the initial sample and the filtrate were measured using LC-MS/MS, and the protein binding rate was calculated.
experimental-readout: k el (s⁻¹)
Please give a number only; it is taken to be in s⁻¹.

Specify reported k el for the molecule shown: C[C@H]1[C@H](NC(=O)/C(=N\OC(C)(C)C(=O)O)c2csc(N)n2)C(=O)N1S(=O)(=O)O [Aztreonam, reference compound]
0.00132

---

test-summary: Protein binding rate in mouse plasma by ultrafiltration
Assay type: in vitro ADME
assay-setup: mouse plasma, 1 mg/L, 37°C 30 min, ultrafiltration, read-out: Protein binding rate, mean (n=3) (converted)
experimental-readout: fraction unbound at 30 min, 1 mg/L
// keep it numeric: no unit symbol after the value

Provide one value: measured fraction unbound at 30 min, 1 mg/L of NCCONC(=O)[C@@H]1CC[C@@H]2CN1C(=O)N2OS(=O)(=O)O [Nacubactam]
0.945

---

test-summary: Protein binding rate in mouse plasma by ultrafiltration
Type: in vitro ADME
assay-setup: mouse plasma, 400 mg/L, 37°C 30 min, ultrafiltration, read-out: Protein binding rate, mean (n=3) (converted)
experimental-readout: fraction unbound at 30 min, 400 mg/L
Write the value as a bare number.

Return reported fraction unbound at 30 min, 400 mg/L. Input molecule: NCCONC(=O)[C@@H]1CC[C@@H]2CN1C(=O)N2OS(=O)(=O)O [Nacubactam]
0.948
